From: patent US9168247B2

# Tested on: human cancer cell lines (U373, T98G, Hs683, OE21, OE33)
# protocol-summary: MTT test, mean over the cancer cell lines
# Type: cell-based
# measurement-conditions: Table 4; mean over cell lines; read-out: IC50 μM growth inhibition (MTT test)
property-name: IC50
Answer format: number, then unit.

Ask: Specify reported IC50 for the compound shown: COCCOc1ccc2c(c1)[nH]c1c(C)nccc12 [JR220]
Reply: 60 µM

Ask: Specify reported IC50 for the compound shown: Cc1nccc2c1[nH]c1cc(OCc3cccnc3)ccc12 [JR212]
Reply: 29 µM

###

# System: U373 cells
# protocol-summary: Cellular imaging (videomicroscopy) of cultured U373 cells: antiproliferative class and global growth ratio
# Assay type: cell-based, human
# measurement-conditions: GG treated cells/GG control cells, 72 h after drug addition, drug at its IC50 (MTT-test determined)
property-name: global growth ratio (GGR)
Write no unit; give the number alone.

Past entries and their recorded results:
Ask: Lab note: U373 cells assay, enter global growth ratio (GGR) for Cc1c2c(cc[n+]1Cc1ccccc1F)c1ccc(OCC3CCCCC3)cc1n2CC1CCCCC1.[Br-] here
Reply: 0.2

Ask: Lab note: U373 cells assay, enter global growth ratio (GGR) for CCCn1c2cc(OCc3ccccc3)ccc2c2ccnc(C)c21 here
Reply: 0.3

Ask: Lab note: U373 cells assay, enter global growth ratio (GGR) for C=CCOc1ccc2c(c1)[nH]c1c(C)nccc12 here
Reply: 0.2

Ask: Lab note: U373 cells assay, enter global growth ratio (GGR) for Cc1nccc2c3ccc(O)cc3n(Cc3ccccc3)c12 [CV27, 1-methyl-7-hydroxy-9-benzyl-β-carboline] here
Reply: 0.2

Ask: Lab note: U373 cells assay, enter global growth ratio (GGR) for CCCn1c2cc(OCc3ccccc3)ccc2c2cc[n+](Cc3ccccc3)c(C)c21.[Br-] here
Reply: 0.3

Continuing:
Ask: Lab note: U373 cells assay, enter global growth ratio (GGR) for Cc1c2c(cc[n+]1Cc1ccccc1F)c1ccc(OCc3ccc(F)cc3)cc1n2Cc1ccc(F)cc1.[Br-] here
Reply: 0.4

Ask: Lab note: U373 cells assay, enter global growth ratio (GGR) for Cc1nccc2c3ccc(OCC4CCCCC4)cc3n(CC3CCCCC3)c12 here
Reply: 0.2

Ask: Lab note: U373 cells assay, enter global growth ratio (GGR) for COCCOc1ccc2c(c1)[nH]c1c(C)nccc12 here
Reply: 0.2

Ask: Lab note: U373 cells assay, enter global growth ratio (GGR) for Cc1c2c(cc[n+]1Cc1ccccc1)c1ccc(OCc3ccccc3)cc1n2Cc1ccccc1.[Br-] here
Reply: 0.4
